Target: EGFR-TK (Homo sapiens)
Construct: 0.2 mg/mL Poly (Glu, Tyr) substrate, 10 mM ATP and EGFR
Sequence (P00533 25-1210): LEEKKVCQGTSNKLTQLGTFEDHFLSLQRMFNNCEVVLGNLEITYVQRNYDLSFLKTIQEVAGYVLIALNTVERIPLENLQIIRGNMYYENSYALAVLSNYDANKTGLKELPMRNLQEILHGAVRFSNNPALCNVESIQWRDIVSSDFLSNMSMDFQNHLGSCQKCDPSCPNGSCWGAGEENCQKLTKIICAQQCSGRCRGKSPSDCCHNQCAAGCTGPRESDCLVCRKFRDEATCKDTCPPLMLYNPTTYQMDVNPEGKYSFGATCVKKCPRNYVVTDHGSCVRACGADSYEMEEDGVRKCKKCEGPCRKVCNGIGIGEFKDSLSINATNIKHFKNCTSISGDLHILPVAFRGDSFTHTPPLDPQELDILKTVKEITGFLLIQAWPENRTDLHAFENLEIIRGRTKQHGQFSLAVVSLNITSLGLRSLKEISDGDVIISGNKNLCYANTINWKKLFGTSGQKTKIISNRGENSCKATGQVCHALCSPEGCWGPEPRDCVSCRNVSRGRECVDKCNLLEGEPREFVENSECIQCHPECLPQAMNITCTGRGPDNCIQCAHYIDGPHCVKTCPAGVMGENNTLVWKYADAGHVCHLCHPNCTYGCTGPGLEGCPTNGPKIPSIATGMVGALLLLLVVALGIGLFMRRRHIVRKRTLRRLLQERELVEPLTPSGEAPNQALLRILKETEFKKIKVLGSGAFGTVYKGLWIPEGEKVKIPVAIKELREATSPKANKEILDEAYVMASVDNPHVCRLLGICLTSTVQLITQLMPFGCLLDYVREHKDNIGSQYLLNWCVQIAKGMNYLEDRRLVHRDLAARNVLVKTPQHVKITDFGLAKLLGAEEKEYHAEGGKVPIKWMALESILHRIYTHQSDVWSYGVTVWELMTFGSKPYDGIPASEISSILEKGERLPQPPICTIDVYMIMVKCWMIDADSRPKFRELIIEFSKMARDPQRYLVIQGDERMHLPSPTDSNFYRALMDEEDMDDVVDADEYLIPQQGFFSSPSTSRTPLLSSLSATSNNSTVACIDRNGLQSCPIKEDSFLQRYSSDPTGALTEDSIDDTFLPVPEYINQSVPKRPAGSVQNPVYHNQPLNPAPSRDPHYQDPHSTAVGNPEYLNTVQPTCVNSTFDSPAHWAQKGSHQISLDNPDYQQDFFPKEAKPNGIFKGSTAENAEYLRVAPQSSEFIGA
Test: EGFR tyrosine kinase inhibitory activity (Kinase-Glo Plus luminescence)
Format: biochemical
Conditions: at 10 µM; read-out: Percent of Inhibition, EGFR tyrosine kinase
PARAMETER_MEASURED: inhibition at 10 µM (%)

These solved cases illustrate the format of a correct answer.
- COMPOUND: "CCOC(=O)C1=C(C)N(c2nc(Nc3cccc(Br)c3)nc(Nc3cccc(Br)c3)n2)C(=S)NC1c1ccccc1O (stereo not shown) [7e]"
  inhibition at 10 µM [%]: 78.5
- COMPOUND: "CCOC(=O)C1=C(C)N(c2nc(Nc3ccccc3)nc(Nc3ccccc3)n2)C(=S)NC1c1ccccc1 (stereo not shown) [7a]"
  inhibition at 10 µM [%]: 52.4
- COMPOUND: "CCOC(=O)C1=C(C)N(c2nc(Nc3cccc(F)c3)nc(Nc3cccc(F)c3)n2)C(=S)NC1c1ccc(F)cc1 (stereo not shown) [7l]"
  inhibition at 10 µM [%]: 96.4
- COMPOUND: "CCOC(=O)C1=C(C)N(c2nc(Nc3cccc(Cl)c3)nc(Nc3cccc(Cl)c3)n2)C(=S)NC1c1ccc(F)cc1 (stereo not shown) [7m]"
  inhibition at 10 µM [%]: 88.5

P. CCOC(=O)C1=C(C)N(c2nc(Nc3ccccc3Cl)nc(Nc3ccccc3Cl)n2)C(=S)NC1c1ccc(OC)cc1 (stereo not shown) [7f]
Q. CCOC(=O)C1=C(C)N(c2nc(Nc3ccc(C)cc3)nc(Nc3ccc(C)cc3)n2)C(=S)NC1c1ccc(O)cc1 (stereo not shown) [7o]
# min-compare on inhibition at 10 µM between P and Q // return label of chosen record Q

* * *

# Lookup of reported pIC50 keyed by entry
System: MCF 12A (normal epithelial breast cell line)
Test: MTT assay on normal cells, MCF 12A
Assay type: cell-based, human
Settings: Homo sapiens, normal epithelial breast cell MCF 12A
pIC50 (log units): -log10 of the concentration in mol/L.

These solved cases illustrate the format of a correct answer.
- COMPOUND: "CCOC(=O)C1=C(C)N(c2nc(Nc3cccc(Cl)c3)nc(Nc3cccc(Cl)c3)n2)C(=S)NC1c1ccc(F)cc1 (centres unmarked) [7m]"
  PARAMETER_MEASURED: "pIC50"
  RECORDED_MEASUREMENT: 4.13
- COMPOUND: "CCOC(=O)C1=C(C)N(c2nc(Nc3ccc(Cl)cc3)nc(Nc3ccc(Cl)cc3)n2)C(=S)NC1c1ccccc1Cl (centres unmarked) [7j]"
  PARAMETER_MEASURED: "pIC50"
  RECORDED_MEASUREMENT: 4.16
- COMPOUND: "CCOC(=O)C1=C(C)N(c2nc(Nc3cccc(Br)c3)nc(Nc3cccc(Br)c3)n2)C(=S)NC1c1ccccc1O (centres unmarked) [7e]"
  PARAMETER_MEASURED: "pIC50"
  RECORDED_MEASUREMENT: 4.05
- COMPOUND: "CCOC(=O)C1=C(C)N(c2nc(Nc3cccc(F)c3)nc(Nc3cccc(F)c3)n2)C(=S)NC1c1ccccc1OC (centres unmarked) [7g]"
  PARAMETER_MEASURED: "pIC50"
  RECORDED_MEASUREMENT: 4.11

Sure, the documented pIC50 for CCOC(=O)C1=C(C)N(c2nc(Nc3ccccc3Cl)nc(Nc3ccccc3Cl)n2)C(=S)NC1c1ccc(OC)cc1 (centres unmarked) [7f] is 4.09

* * *

# Lookup of reported melting point keyed by entry

These solved cases illustrate the format of a correct answer.
- COMPOUND: "CCOC(=O)C1=C(C)N(c2nc(Nc3ccccc3)nc(Nc3ccccc3)n2)C(=S)NC1c1ccccc1 (stereo not shown)"
  RECORDED_MEASUREMENT: "225 to 227 °C"
- COMPOUND: "CCOC(=O)C1=C(C)N(c2nc(Nc3ccccc3[N+](=O)[O-])nc(Nc3ccccc3[N+](=O)[O-])n2)C(=S)NC1c1cccc(Br)c1 (stereo not shown)"
  RECORDED_MEASUREMENT: "185 to 186 °C"
- COMPOUND: "CCOC(=O)C1=C(C)N(c2nc(Nc3cccc(Cl)c3)nc(Nc3cccc(Cl)c3)n2)C(=S)NC1c1ccc(F)cc1 (stereo not shown)"
  RECORDED_MEASUREMENT: "153 to 155 °C"
- COMPOUND: "CCOC(=O)C1=C(C)N(c2nc(Nc3ccccc3[N+](=O)[O-])nc(Nc3ccccc3[N+](=O)[O-])n2)C(=S)NC1c1ccc(C)cc1 (stereo not shown)"
  RECORDED_MEASUREMENT: "232 to 234 °C"
- COMPOUND: "CCOC(=O)C1=C(C)N(c2nc(Nc3cccc(F)c3)nc(Nc3cccc(F)c3)n2)C(=S)NC1c1ccccc1OC (stereo not shown)"
  RECORDED_MEASUREMENT: "132 to 135 °C"

Sure, the documented melting point for CCOC(=O)C1=C(C)N(c2nc(Nc3cccc(Cl)c3)nc(Nc3cccc(Cl)c3)n2)C(=S)NC1c1ccc(O)cc1 (stereo not shown) is 161 to 163 °C

* * *

# Lookup of reported pIC50 keyed by entry
System: MCF-7 (breast cancer)
Assay: MTT in vitro cytotoxicity assay, MCF-7
Format: cell-based, human
Conditions: Homo sapiens, MCF7
pIC50 (log units): -log10 of the concentration in mol/L.

Sure, the documented pIC50 for CCOC(=O)C1=C(C)N(c2nc(Nc3ccccc3Cl)nc(Nc3ccccc3Cl)n2)C(=S)NC1c1ccc(OC)cc1 (stereo not drawn) is 4.19

Sure, the documented pIC50 for CCOC(=O)C1=C(C)N(c2nc(Nc3ccc(Cl)cc3)nc(Nc3ccc(Cl)cc3)n2)C(=S)NC1c1ccccc1Cl (stereo not drawn) is 4.24

Sure, the documented pIC50 for CCOC(=O)C1=C(C)N(c2nc(Nc3cccc(F)c3)nc(Nc3cccc(F)c3)n2)C(=S)NC1c1ccc(F)cc1 (stereo not drawn) is 4.38

Sure, the documented pIC50 for CCOC(=O)C1=C(C)N(c2nc(Nc3ccccc3[N+](=O)[O-])nc(Nc3ccccc3[N+](=O)[O-])n2)C(=S)NC1c1cccc(Br)c1 (stereo not drawn) is 4.12

* * *

Test system: MCF-7 (breast cancer)
Assay: MTT in vitro cytotoxicity assay, MCF-7
Type: cell-based, human
PARAMETER_MEASURED: IC50 (µM)
Respond numerically; units are µM and should not be typed.

The molecule N.N.[Cl][Pt][Cl] [Cisplatin, reference compound] on MCF-7 (breast cancer): IC50 was 24.4

* * *

Target: EGFR-TK (Homo sapiens)
Construct: 0.2 mg/mL Poly (Glu, Tyr) substrate, 10 mM ATP and EGFR
Assay: EGFR tyrosine kinase inhibitory activity (Kinase-Glo Plus luminescence)
Format: biochemical
Details: at 10 µM; read-out: Percent of Inhibition, EGFR tyrosine kinase
PARAMETER_MEASURED: inhibition at 10 µM (%)

- COMPOUND: "CCOC(=O)C1=C(C)N(c2nc(Nc3ccc(Cl)cc3)nc(Nc3ccc(Cl)cc3)n2)C(=S)NC1c1ccccc1Cl (centres unmarked)"
  RECORDED_MEASUREMENT: 82.4
- COMPOUND: "CCOC(=O)C1=C(C)N(c2nc(Nc3ccccc3[N+](=O)[O-])nc(Nc3ccccc3[N+](=O)[O-])n2)C(=S)NC1c1ccc(C)cc1 (centres unmarked)"
  RECORDED_MEASUREMENT: 53.6
- COMPOUND: "CCOC(=O)C1=C(C)N(c2nc(Nc3cccc(F)c3)nc(Nc3cccc(F)c3)n2)C(=S)NC1c1ccccc1OC (centres unmarked)"
  RECORDED_MEASUREMENT: 94.3
- COMPOUND: "CCOC(=O)C1=C(C)N(c2nc(Nc3ccc(C)cc3)nc(Nc3ccc(C)cc3)n2)C(=S)NC1c1ccccc1C (centres unmarked)"
  RECORDED_MEASUREMENT: 54.2
- COMPOUND: "CCOC(=O)C1=C(C)N(c2nc(Nc3ccc([N+](=O)[O-])cc3)nc(Nc3ccc([N+](=O)[O-])cc3)n2)C(=S)NC1c1ccc(C)cc1 (centres unmarked)"
  RECORDED_MEASUREMENT: 56.7
- COMPOUND: "CCOC(=O)C1=C(C)N(c2nc(Nc3cccc(Cl)c3)nc(Nc3cccc(Cl)c3)n2)C(=S)NC1c1ccc(O)cc1 (centres unmarked)"
  RECORDED_MEASUREMENT: 74.8

* * *

Test system: HL-60 (Human promyelocytic leukemia)
Assay: MTT in vitro cytotoxicity assay, HL-60
Format: cell-based
Conditions: Homo sapiens
PARAMETER_MEASURED: pIC50
pIC50 (log units): -log10 of the concentration in mol/L.

- COMPOUND: "CCOC(=O)C1=C(C)N(c2nc(Nc3ccc(C)cc3)nc(Nc3ccc(C)cc3)n2)C(=S)NC1c1ccccc1C (centres unmarked) [7n]"
  RECORDED_MEASUREMENT: 3.98
- COMPOUND: "CCOC(=O)C1=C(C)N(c2nc(Nc3cccc(F)c3)nc(Nc3cccc(F)c3)n2)C(=S)NC1c1ccc(F)cc1 (centres unmarked) [7l]"
  RECORDED_MEASUREMENT: 4.64
- COMPOUND: "CCOC(=O)C1=C(C)N(c2nc(Nc3ccc(Cl)cc3)nc(Nc3ccc(Cl)cc3)n2)C(=S)NC1c1ccccc1Cl (centres unmarked) [7j]"
  RECORDED_MEASUREMENT: 4.40
- COMPOUND: "CCOC(=O)C1=C(C)N(c2nc(Nc3ccccc3[N+](=O)[O-])nc(Nc3ccccc3[N+](=O)[O-])n2)C(=S)NC1c1cccc(Br)c1 (centres unmarked) [7i]"
  RECORDED_MEASUREMENT: 4.18

Sure, the documented pIC50 for CCOC(=O)C1=C(C)N(c2nc(Nc3ccc([N+](=O)[O-])cc3)nc(Nc3ccc([N+](=O)[O-])cc3)n2)C(=S)NC1c1ccc(C)cc1 (centres unmarked) [7b] is 4.11

Sure, the documented pIC50 for CCOC(=O)C1=C(C)N(c2nc(Nc3ccccc3Cl)nc(Nc3ccccc3Cl)n2)C(=S)NC1c1ccc(OC)cc1 (centres unmarked) [7f] is 4.33

Sure, the documented pIC50 for CCOC(=O)C1=C(C)N(c2nc(Nc3ccccc3)nc(Nc3ccccc3)n2)C(=S)NC1c1ccccc1 (centres unmarked) [7a] is 4.08

Sure, the documented pIC50 for CCOC(=O)C1=C(C)N(c2nc(Nc3cccc(F)c3)nc(Nc3cccc(F)c3)n2)C(=S)NC1c1ccccc1OC (centres unmarked) [7g] is 4.50

All values here come from paper PMC5517562.
